- tested.target: T1, mouse B7-H4ECD mIgG2a Fc fusion protein (mouse, UniProt Q7TSP5 25-257, limits assumed)
- T1 construct: also called mouse B7-H4-mIg fusion protein; Mouse B7-H4-mouse-Ig Fusion Protein; not shown: mouse IgG2a Fc
- T1 sequence: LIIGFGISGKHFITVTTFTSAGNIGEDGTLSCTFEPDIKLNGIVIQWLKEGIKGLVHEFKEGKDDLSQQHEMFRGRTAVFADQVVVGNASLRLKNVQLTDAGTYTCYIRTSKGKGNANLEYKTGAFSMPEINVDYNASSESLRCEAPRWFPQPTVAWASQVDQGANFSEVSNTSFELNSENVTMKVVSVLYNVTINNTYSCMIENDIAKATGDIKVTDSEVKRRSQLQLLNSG
- test.protocol: ELISA, mouse B7-H4ECD mIgG2a Fc fusion coated
property: EC50 (nM)
Record the value in nM, omitting the unit from your answer.

humanized 6H3 variant 12 (antibody, V domains shown, also called V12; 6H3 V12) VH: EVQLVQSGAEVKKPGASVKVSCKASGYTFTDYYMNWVRQAPGQGLEWIGIINPYNGDTSYNQKFKGRVTLTVDKSTSTAYMELSSLRSEDTAVYYCARYPESTYWGQGTLVTVSS VL: DIVMTQTPLSLPVTLGQPASISCRSSQSLVHINGNTYLHWYLQRPGQSPKVLIYKVSNRFSGVPDRFSGSGSGTDFTLKISRVEAEDVGVYFCSQSTHVPLTFGAGTKVEIK: 0.09

Prompt: Param item = humanized 6H3 variant 13 (antibody, V domains shown, also called V13; H2B L2C) VH: EVQLVQSGAEMKKPGASVKVSCKASGYTFTDYYMNWVRQAPGQSLEWMGVINPYNGDTTYNQKFQGRVTVAVDKSATTAYMELSSLRSEDTAVYYCARYPESTYWGQGTLVTVSS VL: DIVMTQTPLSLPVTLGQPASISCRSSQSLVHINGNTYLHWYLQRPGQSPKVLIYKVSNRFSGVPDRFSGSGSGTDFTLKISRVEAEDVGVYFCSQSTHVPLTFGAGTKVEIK ; retrieve measured EC50.
Response: 0.13

Attribution: patent US20150315275A1
